assay: MTT dye reduction cytotoxicity test, new born foreskin fibroblast cells; type: cell-based, human; conditions: human
readout: cytotoxicity at 0.8 μg/ml (%)
Output spec: scalar in %, unitless text.

Q: Please look up its cytotoxicity at 0.8 μg/ml: C[C@H]1[C@H](C)CC[C@]2(C(=O)O)CC[C@]3(C)C(=CC[C@@H]4[C@@]5(C)C[C@@H](O)[C@H](O)[C@@](C)(CO)[C@@H]5CC[C@]43C)[C@H]12 [Asiatic Acid, asiatic acid]
A: 30

====

assay: MTT dye reduction cytotoxicity test, OKF6; assay type: cell-based; details: human
readout: cytotoxicity at 25 μg/ml

Q: Please look up its cytotoxicity at 25 μg/ml: C[C@H]1[C@H](C)CC[C@]2(C(=O)O)CC[C@]3(C)C(=CC[C@@H]4[C@@]5(C)C[C@@H](O)[C@H](O)[C@@](C)(CO)[C@@H]5CC[C@]43C)[C@H]12 [Asiatic Acid, asiatic acid]
A: 92%

====

Assay: MTT dye reduction cytotoxicity test, new born foreskin fibroblast cells
Format: cell-based, human
Conditions: human
Method: Taxol is a commercially available chemotherapeutic predominantly used in the treatment of breast cancer, lung cancer and ovarian cancer. The experiments were performed on human foreskin fibroblast cells as well as established tumor cell lines. The percentage cytotoxicity was measured by the MTT dye reduction test, which requires the NADPH dehydrogenase enzyme of the mitochondria in live cells (1).
readout: cytotoxicity at 6.25 μg/ml (%)
Output spec: scalar in %, unitless text.

Q: Please look up its cytotoxicity at 6.25 μg/ml: `C[C@H]1[C@H](C)CC[C@]2(C(=O)O)CC[C@]3(C)C(=CC[C@@H]4[C@@]5(C)C[C@@H](O)[C@H](O)[C@@](C)(CO)[C@@H]5CC[C@]43C)[C@H]12`
A: 30

====

experiment: MTT dye reduction cytotoxicity test, OKF6; assay type: cell-based; settings: human, OKF6 cells (SV40-transformed normal epithelial cell line); OKF6, 2.5 μg/ml
readout: cytotoxicity at 2.5 μg/ml

Q: Please look up its cytotoxicity at 2.5 μg/ml: CC(=O)O[C@H]1C(=O)[C@@]2(C)[C@H]([C@H](OC(=O)c3ccccc3)[C@]3(O)C[C@H](OC(=O)[C@H](O)[C@@H](NC(=O)c4ccccc4)c4ccccc4)C(C)=C1C3(C)C)[C@]1(OC(C)=O)CO[C@@H]1C[C@@H]2O [Taxol, reference compound]
A: 26%

====

assay: MTT dye reduction cytotoxicity test, new born foreskin fibroblast cells; format: cell-based, human; conditions: human; New Born Foreskin Fibroblast cells, 0.8 μg/ml; read-out: % cytotox
readout: cytotoxicity at 0.8 μg/ml (%)
Output spec: scalar in %, unitless text.

Q: Please look up its cytotoxicity at 0.8 μg/ml: CC(=O)O[C@H]1C(=O)[C@@]2(C)[C@H]([C@H](OC(=O)c3ccccc3)[C@]3(O)C[C@H](OC(=O)[C@H](O)[C@@H](NC(=O)c4ccccc4)c4ccccc4)C(C)=C1C3(C)C)[C@]1(OC(C)=O)CO[C@@H]1C[C@@H]2O [Taxol, reference compound]
A: 40

====

experiment: MTT dye reduction cytotoxicity test, OKF6; assay type: cell-based; conditions: human
readout: cytotoxicity at 2.5 μg/ml

Q: Please look up its cytotoxicity at 2.5 μg/ml: C[C@H]1[C@H](C)CC[C@]2(C(=O)O)CC[C@]3(C)C(=CC[C@@H]4[C@@]5(C)C[C@@H](O)[C@H](O)[C@@](C)(CO)[C@@H]5CC[C@]43C)[C@H]12 [Asiatic Acid, asiatic acid]
A: 5%

====

assay: MTT dye reduction cytotoxicity test, new born foreskin fibroblast cells; assay type: cell-based, human; settings: human
readout: cytotoxicity at 12.5 μg/ml (%)
Output spec: scalar in %, unitless text.

Q: Please look up its cytotoxicity at 12.5 μg/ml: C[C@H]1[C@H](C)CC[C@]2(C(=O)O)CC[C@]3(C)C(=CC[C@@H]4[C@@]5(C)C[C@@H](O)[C@H](O)[C@@](C)(CO)[C@@H]5CC[C@]43C)[C@H]12 [Asiatic Acid, asiatic acid]
A: 80
